B1: NCF4 (parent)
chain: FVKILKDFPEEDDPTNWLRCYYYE

Variants of: B1
Experiment: protein stability index of a GFP-peptide fusion (GPS, HEK-293T) (PSI 1-6); higher = more stable;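 note: lentivirally expressed fusions sorted by FACS into six bins by GFP to DsRed ratio, PSI derived from sequencing read proportions per bin multiplied by bin number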
Conditions: c terminus: a fixed tail appended
// reported protein stability index for each item listed
Give a plain numeric answer without units written out.

// solved cases for protein stability index follow
INSERT INTO results (variantnotation, observed) VALUES
  ('I4K', 3.09),
  ('F1P', 2.05),
  ('R19F', 2.28),
  ('W17V', 1.31),
  ('L5P', 2.95);

Turning now to a further variant:
// protein stability index value for W17H : 2.34

meta.source: the supplement of paper PMC10567573
